MEASURED_ATTRIBUTE: melting point

Below, each entry is followed by its recorded melting point result.
compound=CC(=O)N(C(=O)OC(C)(C)C)c1ccc(-c2nc3n(Cc4c(F)cccc4F)c(C)c(Cc4ccccc4)c(=O)n3c2C)cc1 reported_value="176 to 177 °C"
compound=CC1=NN=C(c2ccc([N+](=O)[O-])cc2)c2cc(Cl)ccc2C1 reported_value="199 to 203 °C"
compound="CSC(=S)N1Cc2[nH]c3ccccc3c2CC1CO (configuration not stated)" reported_value="114 to 116 °C"
compound="C#CCn1c(C(F)(F)F)c(C(O)C#C)c2ccccc21 (racemic)" reported_value="98 °C"
compound=CCc1c(Cl)nc(NC=O)nc1Cl reported_value="116 to 118 °C"

Provide reported melting point for each item, in the same order as listed.
1. CCOC(=O)n1c(C(=O)c2cncnc2)c(NC(C)=O)c2ccc(Cl)cc21
2. NC1CCc2ccccc2NC1=O (configuration not stated)

214 to 215 °C
161 to 162 °C
